- system: T1, RNF-MD S3i (E783K/D786K in RNF20 and E449K/K818E in RNF40) (human, UniProt Q5VTR2 321-900; O75150 327-926, E783K | D786K | E449K | K818E)
- T1 construct: RNF20, human, residues 321-900; RNF40, human, residues 327-926; source: E. coli BL21 Rosetta (DE3), purified from the mixed cell extract (strep-tactin, dextrin, gel filtration); copies: 1 + 1
- T1 sequence (Q5VTR2 321-900 E783K/D786K, chain 1 of 2): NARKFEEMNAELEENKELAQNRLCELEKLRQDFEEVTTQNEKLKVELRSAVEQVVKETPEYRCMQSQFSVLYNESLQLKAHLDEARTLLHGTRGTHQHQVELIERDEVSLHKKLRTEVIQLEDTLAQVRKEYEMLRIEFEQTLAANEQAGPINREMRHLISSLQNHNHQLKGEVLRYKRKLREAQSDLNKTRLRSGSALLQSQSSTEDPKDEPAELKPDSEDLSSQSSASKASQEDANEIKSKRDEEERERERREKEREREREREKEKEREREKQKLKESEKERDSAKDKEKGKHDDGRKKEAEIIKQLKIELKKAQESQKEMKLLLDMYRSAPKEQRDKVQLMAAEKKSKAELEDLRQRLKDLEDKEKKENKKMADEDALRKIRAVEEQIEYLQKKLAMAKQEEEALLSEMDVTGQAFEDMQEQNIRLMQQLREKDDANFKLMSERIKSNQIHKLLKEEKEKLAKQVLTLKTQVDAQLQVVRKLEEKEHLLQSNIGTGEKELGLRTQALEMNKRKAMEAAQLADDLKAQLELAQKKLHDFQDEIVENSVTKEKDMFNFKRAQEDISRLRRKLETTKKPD
- T1 sequence (O75150 327-926 E449K/K818E, chain 2 of 2): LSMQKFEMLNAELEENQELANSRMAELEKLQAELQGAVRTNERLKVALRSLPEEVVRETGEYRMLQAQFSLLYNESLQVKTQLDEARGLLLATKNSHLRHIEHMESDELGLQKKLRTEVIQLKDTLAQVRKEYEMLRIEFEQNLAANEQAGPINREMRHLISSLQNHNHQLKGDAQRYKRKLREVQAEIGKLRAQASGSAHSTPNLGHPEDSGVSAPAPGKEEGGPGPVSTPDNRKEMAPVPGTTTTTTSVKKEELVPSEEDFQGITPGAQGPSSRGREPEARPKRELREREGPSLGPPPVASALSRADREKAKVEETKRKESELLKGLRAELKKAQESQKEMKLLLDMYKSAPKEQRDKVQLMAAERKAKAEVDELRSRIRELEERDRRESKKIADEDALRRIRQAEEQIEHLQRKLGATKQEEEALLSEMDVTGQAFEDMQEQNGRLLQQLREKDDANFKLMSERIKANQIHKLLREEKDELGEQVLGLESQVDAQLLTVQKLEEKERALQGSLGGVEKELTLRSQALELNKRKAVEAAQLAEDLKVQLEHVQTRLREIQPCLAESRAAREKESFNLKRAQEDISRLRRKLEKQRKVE
- assayNotes: SPR; RNF-MD immobilised on a CM5 chip, intein-WAC flown over; Biacore 8K, 25°C, 20 mM HEPES (pH 7.5), 200 mM sodium chloride, 0.02% Tween 20
- conditionDetails: both partners purified
reportedProperty: Kd (nM)
Lab book: enter the figure in nM, no units written.

query: Return reported Kd; argument: intein-WAC S3 (R622E/E623K/R625E) (domain or fragment, human, UniProt Q9BTA9 570-647, looked up, WAC, human, residues 570-647; source: purified (Ni-NTA, heparin, gel filtration)) HVQGWPADHAEKQASRLREEAHNMGTIHMSEICTELKNLRSLVRVCEIQATLEKQEILFLRQQIKELEKLKNQNSFMV
result: 285
